// data source = patent US20110230481A2

Measured pIC50 of individual entries
# System: human acute myeloid leukemia MOLM-13 cells
# Assay notes: Growth inhibition test (MTS)
# Assay type: cell-based
# Condition label: Homo sapiens, MOLM-13; MOLM13; 72 hours; read-out: Cytotoxicity in MTS assay (ED50)
pIC50: −log10 of the molar value.
Recorded endpoint: pIC50

- Compound: "Brc1c(Br)c(Br)c2[nH]c(NCCCn3ccnc3)nc2c1Br [Compound 65]"
  Study target: "human acute myeloid leukemia MOLM-13 cells"
  Obs value: 5.16
- Compound: "NCCCNc1nc2c(Br)c(Br)c(Br)c(Br)c2[nH]1 [Compound 11]"
  Study target: "human acute myeloid leukemia MOLM-13 cells"
  Obs value: 5.86
- Compound: "Brc1c(Br)c(Br)c2[nH]c(Nc3ccccc3)nc2c1Br [Compound 79]"
  Study target: "human acute myeloid leukemia MOLM-13 cells"
  Obs value: 5.22
- Compound: "Nc1ccc(Nc2nc3c(Br)c(Br)c(Br)c(Br)c3[nH]2)cc1 [Compound 86]"
  Study target: "human acute myeloid leukemia MOLM-13 cells"
  Obs value: 5.06
- Compound: "Brc1c(Br)c(Br)c2[nH]c(NCCN3CCCCC3)nc2c1Br [Compound 13]"
  Study target: "human acute myeloid leukemia MOLM-13 cells"
  Obs value: 5.66
- Compound: "NCCCCNc1nc2c(Br)c(Br)c(Br)c(Br)c2[nH]1 [Compound 61]"
  Study target: "human acute myeloid leukemia MOLM-13 cells"
  Obs value: 5.23
- Compound: "Brc1c(Br)c(Br)c2[nH]c(NCCN3CCOCC3)nc2c1Br [Compound 16]"
  Study target: "human acute myeloid leukemia MOLM-13 cells"
  Obs value: 5.33
- Compound: "Brc1c(Br)c(Br)c2[nH]c(NCCCN3CCCCC3)nc2c1Br [Compound 59]"
  Study target: "human acute myeloid leukemia MOLM-13 cells"
  Obs value: 5.45
- Compound: "NCC(O)CNc1nc2c(Br)c(Br)c(Br)c(Br)c2[nH]1 (stereo not drawn) [Compound 90]"
  Study target: "human acute myeloid leukemia MOLM-13 cells"
  Obs value: 5.16
- Compound: "Brc1c(Br)c(Br)c2[nH]c(NCCN3CCCC3)nc2c1Br [Compound 14]"
  Study target: "human acute myeloid leukemia MOLM-13 cells"
  Obs value: 5.84
- Compound: "Brc1c(Br)c(Br)c2[nH]c(N3CCNCC3)nc2c1Br [Compound 20]"
  Study target: "human acute myeloid leukemia MOLM-13 cells"
  Obs value: 5.80
- Compound: "CN1CCN(c2nc3c(Br)c(Br)c(Br)c(Br)c3[nH]2)CC1 [Compound 21]"
  Study target: "human acute myeloid leukemia MOLM-13 cells"
  Obs value: 5.79
